Sourced from patent US20260092093A1

Biological target: T1, hIL-18Rα ECD-Fc fusion protein (human, UniProt Q13478 22-329)
T1 construct: extracellular domain; captured on Protein A sensor
T1 sequence (looked up): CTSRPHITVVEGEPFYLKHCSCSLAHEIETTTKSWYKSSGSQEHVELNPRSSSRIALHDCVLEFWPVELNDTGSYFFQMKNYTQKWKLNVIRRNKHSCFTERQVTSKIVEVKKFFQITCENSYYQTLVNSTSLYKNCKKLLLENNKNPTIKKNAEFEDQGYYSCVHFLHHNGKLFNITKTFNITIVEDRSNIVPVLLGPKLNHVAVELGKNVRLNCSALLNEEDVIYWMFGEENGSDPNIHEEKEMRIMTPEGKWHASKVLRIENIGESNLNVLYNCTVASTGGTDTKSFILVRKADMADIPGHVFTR
Test: BLI (Octet RED96), hIL-18Rα ECD-Fc on Protein A sensor
OBSERVED_PROPERTY: kon

Look over these answered cases.
IL-18 variant polypeptide M5 (ligand) YFEKLTSKLSVIRNLNDQVLFIDQGNRPLFEDMTDSDCRDNAPRTIFIISMYKWSPWRGMAVTISVKCEKISTLSCENKIISFKEMNPPDVIKDTKSDIIFFQTSVPGHDNKMQFESSSYEGYFLACEKERDLFKLILKKEDELGDRSIMFTVQKED: 383000 M⁻¹ s⁻¹
IL-18 variant polypeptide M28 (ligand) YFPKLASKLSVIRNLNDQVLFIDQGNRPLFEDMTDSDCRDNAPRTIFIISMYKWSGGRGMAVTISVKCEKISTLSCENKIISFKEMNPPDVIKDTKSDIIFFQYSVPGHDNKMQFESSSYEGYFLACEKERDLFKLILKKEDELGDRSIMFTVQNED: 318000 M⁻¹ s⁻¹

Req: Give the value of kon reported for the following: IL-18 variant polypeptide M12 (ligand) YFPKLKSKLSVIRNLNDQVLFIDQGNRPLFEDMTDSDCRDNAPRTIFIISMYKGSGARGMAVTISVKCEKISTLSCENKIISFKEMNPPDTIKDTKSDIIFFQRSVPGHDNKMQFESSSYEGYFLACEKERDLFKLILKKEDELGDRSIMFTVQNED
Resp: 427000 M⁻¹ s⁻¹

Req: Give the value of kon reported for the following: IL-18 variant polypeptide M4 (ligand) YFPKLKSKLSVIRNLNDQVLFIDQGNRPLFEDMTDSDCRDNAPRTIFIISMYKWSGVRGMAVTISVKCEKISTLSCENKIISFKEMNPPDVIKDTKSDIIFFQFSVPGHDNKMQFESSSYEGYFLACEKERDLFKLILKKEDELGDRSIMFTVQNED
Resp: 436000 M⁻¹ s⁻¹

Req: Give the value of kon reported for the following: IL-18 variant polypeptide M39 (ligand) YFPKLRSKLSVIRNLNDQVLFIDQGNRPLFEDMTDSDCRDNAPRTIFIISMYKWSPGRGMAVTISVKCEKISTLSCENKIISFKEMNPPDVIKDTKSDIIFFQLSVPGHDNKMQFESSSYEGYFLACEKERDLFKLILKKEDELGDRSIMFTVQNED
Resp: 1.07e+06 M⁻¹ s⁻¹

Req: Give the value of kon reported for the following: IL-18 variant polypeptide MM4 (ligand, soluble, E. coli-made) YFPKLRSKLSVIRNLNDQVLFIDQGNRPLFEDMTDSDCRDNAPRTIFIISMYKLSTIRGMAVTISVKCEKISTLSCENKIISFKEMNPPDGIKDTKSDIIFFQRSVPGHDNKMQFESSSYEGYFLACEKERDLFKLILKKEDELGDRSIMFTVQNED
Resp: 3.82e+06 M⁻¹ s⁻¹

Req: Give the value of kon reported for the following: IL-18 variant polypeptide M9 (ligand) YFPKLRSKLSVIRNLNDQVLFIDQGNRPLFEDMTDSDCRDNAPRTIFIISMYKWSRARGMAVTISVKCEKISTLSCENKIISFKEMNPPDSIKDTKSDIIFFQSSVPGHDNKMQFESSSYEGYFLACEKERDLFKLILKKEDELGDRSIMFTVQNED
Resp: 2.21e+06 M⁻¹ s⁻¹

Req: Give the value of kon reported for the following: IL-18 variant polypeptide WM10 (ligand, soluble, E. coli-made) YFPKLKSKLSVIRNLNDQVLFIDQGNRPLFEDMTDSDCRDNAPRTIFIISMYKDSQPRGMAVTISVKCEKISTLSCENKIISFKEMNPPDSIKDTKSDIIFFQRSVPGHDNKMQFESSSYEGYFLACEKERDLFKLILKKEDELGDRSIMFTVQNED
Resp: 543000 M⁻¹ s⁻¹

Req: Give the value of kon reported for the following: IL-18 variant polypeptide M10 (ligand) YFPKLRSKLSVIRNLNDQVLFIDQGNRPLFEDMTDSDCRDNAPRTIFIISMYKQSLWRGMAVTISVKCEKISTLSCENKIISFKEMNPPDSIKDTKSDIIFFQRSVPGHDNKMQFESSSYEGYFLACEKERDLFKLILKKEDELGDRSIMFTVQNED
Resp: 483000 M⁻¹ s⁻¹

Req: Give the value of kon reported for the following: IL-18 variant polypeptide M20 (ligand) YFPKLRSKLSVIRNLNDQVLFIDQGNRPLFEDMTDSDCRDNAPRTIFIISMYKSSRSRGMAVTISVKCEKISTLSCENKIISFKEMNPPDGIKDTKSDIIFFQSSVPGHDNKMQFESSSYEGYFLACEKERDLFKLILKKEDELGDRSIMFTVQNED
Resp: 476000 M⁻¹ s⁻¹

Req: Give the value of kon reported for the following: IL-18 variant polypeptide M34 (ligand) YFPKLRSKLSVIRNLNDQVLFIDQGNRPLFEDMTDSDCRDNAPRTIFIISMYKHSRNRGMAVTISVKCEKISTLSCENKIISFKEMNPPDVIKDTKSDIIFFQESVPGHDNKMQFESSSYEGYFLACEKERDLFKLILKKEDELGDRSIMFTVQNED
Resp: 505000 M⁻¹ s⁻¹

Req: Give the value of kon reported for the following: IL-18 variant polypeptide LM1 (ligand, soluble, E. coli-made) YFPKLKSKLSVIRNLNDQVLFIDQGNRPLFEDMTDSDCRDNAPRTIFIISMYKGSGARGMAVTISVKCEKISTLSCENKIISFKEMNPPDNIKDTKSDIIFFQRSVPGHDNKMQFESSSYEGYFLACEKERDLFKLILKKEDELGDRSIMFTVQNED
Resp: 545000 M⁻¹ s⁻¹

Req: Give the value of kon reported for the following: IL-18 variant polypeptide M37 (ligand) YFPKLGSKLSVIRNLNDQVLFIDQGNRPLFEDMTDSDCRDNAPRTIFIISMYKQSVWRGMAVTISVKCEKISTLSCENKIISFKEMNPPDNIKDTKSDIIFFQRSVPGHDNKMQFESSSYEGYFLACEKERDLFKLILKKEDELGDRSIMFTVQNED
Resp: 404000 M⁻¹ s⁻¹
